Study system: T1, IL-18 receptors on HEK-Blue IL-18 reporter cells (UniProt Q13478 19-541; O95256 20-599, limits assumed); further: unit not given here
T1 sequence (looked up) 1: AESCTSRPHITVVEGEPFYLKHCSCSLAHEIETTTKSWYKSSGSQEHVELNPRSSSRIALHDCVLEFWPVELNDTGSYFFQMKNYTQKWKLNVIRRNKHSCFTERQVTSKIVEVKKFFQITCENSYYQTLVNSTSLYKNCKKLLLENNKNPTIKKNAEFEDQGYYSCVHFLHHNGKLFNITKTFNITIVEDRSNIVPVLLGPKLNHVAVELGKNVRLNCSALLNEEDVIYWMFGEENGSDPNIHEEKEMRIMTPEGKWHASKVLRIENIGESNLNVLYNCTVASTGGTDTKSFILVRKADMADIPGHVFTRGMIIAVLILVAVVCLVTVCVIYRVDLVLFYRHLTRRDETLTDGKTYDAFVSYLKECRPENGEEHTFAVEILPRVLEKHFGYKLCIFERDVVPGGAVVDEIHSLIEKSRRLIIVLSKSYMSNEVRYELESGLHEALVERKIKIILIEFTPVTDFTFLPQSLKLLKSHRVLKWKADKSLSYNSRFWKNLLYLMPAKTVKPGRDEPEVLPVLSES
T1 sequence (looked up) 2: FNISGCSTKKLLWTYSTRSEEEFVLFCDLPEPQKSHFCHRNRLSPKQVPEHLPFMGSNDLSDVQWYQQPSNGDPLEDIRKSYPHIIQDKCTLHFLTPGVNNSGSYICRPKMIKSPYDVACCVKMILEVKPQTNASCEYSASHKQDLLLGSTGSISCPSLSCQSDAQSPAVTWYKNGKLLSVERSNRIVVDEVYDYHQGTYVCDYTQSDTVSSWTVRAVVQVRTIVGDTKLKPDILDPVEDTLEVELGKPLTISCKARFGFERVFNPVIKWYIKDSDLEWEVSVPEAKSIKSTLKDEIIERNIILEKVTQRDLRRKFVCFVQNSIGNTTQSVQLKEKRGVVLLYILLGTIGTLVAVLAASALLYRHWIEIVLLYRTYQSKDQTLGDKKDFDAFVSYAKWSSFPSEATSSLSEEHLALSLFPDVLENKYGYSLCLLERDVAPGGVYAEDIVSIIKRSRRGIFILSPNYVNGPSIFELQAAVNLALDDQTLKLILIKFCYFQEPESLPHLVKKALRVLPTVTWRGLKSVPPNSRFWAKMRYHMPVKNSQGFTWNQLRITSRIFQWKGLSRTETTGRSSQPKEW
Assay explanation: cell-based or functional assay
Assay endpoint: Activity, No BP, DF-500000

Prompt: Which Activity, No BP, DF-500000 is listed for IL-18 variant G3D, E6Q, R27S, K53R, D54A, S55R, T63S, N91Q (ligand) YFDKLQSKLSVIRNLNDQVLFIDQGNSPLFEDMTDSDMRDNAPRTIFIISMYRARQPRGMAVSISVKSEKISTLSSENKIISFKEMNPPDQIKDTKSDIIFFQRSVPGHDNKMQFESSSYEGYFLASEKERDLFKLILKKEDELGDRSIMFTVQNED ?
Response: 0.41

Next, consider the following binder.
Prompt: Which Activity, No BP, DF-500000 is listed for IL-18 variant G3Q, E6G, D54N, S55H, T63V, N91M, R104T (ligand) YFQKLGSKLSVIRNLNDQVLFIDQGNRPLFEDMTDSDMRDNAPRTIFIISMYKNHQPRGMAVVISVKSEKISTLSSENKIISFKEMNPPDMIKDTKSDIIFFQTSVPGHDNKMQFESSSYEGYFLASEKERDLFKLILKKEDELGDRSIMFTVQNED ?
Response: 1.82
